Target: BSA-ALD (oxidized bovine serum albumin containing allysine aldehyde groups) (Bos taurus, UniProt P02769)
Construct: made in house; host or cells: no expression host: BSA oxidised chemically with sodium ascorbate, ferric chloride and H2O2, then desalted on PD-10
Sequence (P02769 25-607): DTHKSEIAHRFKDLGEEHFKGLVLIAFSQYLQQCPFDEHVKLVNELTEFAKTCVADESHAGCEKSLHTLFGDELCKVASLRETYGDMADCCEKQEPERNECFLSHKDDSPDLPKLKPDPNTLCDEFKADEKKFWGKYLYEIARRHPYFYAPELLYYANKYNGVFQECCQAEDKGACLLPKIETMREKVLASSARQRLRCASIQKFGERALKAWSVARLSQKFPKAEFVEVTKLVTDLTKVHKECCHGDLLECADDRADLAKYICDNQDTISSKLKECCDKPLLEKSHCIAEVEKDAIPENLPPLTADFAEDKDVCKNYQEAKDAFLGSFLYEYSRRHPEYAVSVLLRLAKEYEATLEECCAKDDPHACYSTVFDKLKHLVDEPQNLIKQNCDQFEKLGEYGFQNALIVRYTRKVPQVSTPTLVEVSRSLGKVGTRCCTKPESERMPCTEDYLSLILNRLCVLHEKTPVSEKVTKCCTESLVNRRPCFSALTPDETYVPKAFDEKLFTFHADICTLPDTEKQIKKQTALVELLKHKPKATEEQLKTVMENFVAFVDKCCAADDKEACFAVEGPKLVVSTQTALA
Assay: Relaxivity measurements with BSA-Ald
Type: binding
Conditions: 1.4 T, 37° C., protein-bound species after NaBH3CN and ultrafiltration
# binarize r1, Bound to BSA-Ald: threshold 8 mM⁻¹ s⁻¹ inclusive, high side Y, low side N

Item NNC(CCC(=O)NCCCN1CCN(CC(=O)[O-])Cc2cccc(n2)CN(CC(=O)[O-])CC1)C(=O)O.[Mn+2] (centres unmarked) [Mn-15] with r1, Bound to BSA-Ald of 8 mM⁻¹ s⁻¹ or above?
Y

Confirm if r1, Bound to BSA-Ald reported for the molecule NOC(CCC(=O)NCCCN1CCN(CC(=O)[O-])Cc2cccc(n2)CN(CC(=O)[O-])CC1)C(=O)O.[Mn+2] (centres unmarked) [Mn-16] is 8 mM⁻¹ s⁻¹ or above.
Y

// inclusive: r1, Bound to BSA-Ald at least 8 mM⁻¹ s⁻¹? input: NN1CCN(C(=O)CCC(C(=O)[O-])N2CCN(CC(=O)[O-])CCN(C(CCC(=O)N3CCN(N)CC3)C(=O)[O-])CCN(CC(=O)[O-])CC2)CC1.[Gd+3] (stereo not drawn) [Gd-10, trans-1,7-Gd-(CHyd)2]
Y

Reported r1, Bound to BSA-Ald at or above 8 mM⁻¹ s⁻¹? NN1CCN(C(=O)CCC(C(=O)[O-])N2CCN(CC(=O)[O-])CCN(CC(=O)[O-])CCN(C(CCC(=O)N3CCN(N)CC3)C(=O)[O-])CC2)CC1.[Gd+3] (stereo not drawn) [Gd-9, cis-1,4-Gd-(CHyd)2]
Y

Given the entry NNCC(=O)NCCCN1CCN(CC(=O)[O-])Cc2cccc(n2)CN(CC(=O)[O-])CC1.[Mn+2] [Mn-17] , answer whether its r1, Bound to BSA-Ald meets or surpasses 8 mM⁻¹ s⁻¹.
Y

Could you please find out whether CCCCN1CCN(CCCC(=O)N2CCN(N)CC2)CCN(CC(=O)[O-])CCN(CC(=O)[O-])CC1.[Mn+2] [Mn-13] has r1, Bound to BSA-Ald that meets 8 mM⁻¹ s⁻¹ or exceeds it?
N

Can NN1CCN(C(=O)CCCN2CCN(CCCC(=O)N3CCN(N)CC3)CCN(CC(=O)[O-])CCN(CC(=O)[O-])CC2)CC1.[Mn+2] [Mn-12] be said to have r1, Bound to BSA-Ald at or above 8 mM⁻¹ s⁻¹?
N

Hi team, for NNC(=O)CCCN1CCN(CCCC(=O)NN)CCN(CC(=O)[O-])CCN(CC(=O)[O-])CC1.[Mn+2] [Mn-14] , is the recorded r1, Bound to BSA-Ald at or above 8 mM⁻¹ s⁻¹?
N
